Reference source for all entries: patent US10517889B2

Can you tell me % inhibition of SMAD7 mRNA expression for the items I'm about to list?
- System: human SMAD7 mRNA
- test method notes: Antisense inhibition of human SMAD7 mRNA expression in Hep3B cells by 3-10-3 cEt gapmers, 10,000 nM, electroporation (Example 2)
- Assay type: cell-based
- applied conditions: Hep3B cells, electroporation with 10,000 nM antisense oligonucleotide, approximately 24 hours, primer probe set RTS5062, relative to untreated control cells
Strand notation (5' to 3'): a small letter for the sugar, then the base; units joined by * are phosphorothioate-linked, units joined directly phosphodiester-linked; [ ] holds rarer units or linkages, { } end groups; capitals alone tell only the bases. e = 2'-O-(2-methoxyethyl) (MOE); k = constrained ethyl (cEt); [5mC] = 5-methylcytosine; d = 2'-deoxy (DNA)
Answers are plain numbers, in %.

Completed entries (count: 3):
substance	measured result
798983 (antisense k[5mC]*k[5mC]*k[5mC]*d[5mC]*dT*dT*d[5mC]*dA*dT*dA*d[5mC]*dA*d[5mC]*kT*kG*kT) [compound 798983]	0
798965 (antisense kT*kG*k[5mC]*d[5mC]*d[5mC]*d[5mC]*dT*dT*d[5mC]*dT*dT*d[5mC]*d[5mC]*kA*kA*kA) [compound 798965]	43
771576 (antisense eG*eG*eG*e[5mC]*eA*dG*dG*dA*dG*dA*dG*dA*d[5mC]*dA*d[5mC]*e[5mC]*eG*e[5mC]*eT*eT) [compound 771576]	50

# batch size: 5; output % inhibition of SMAD7 mRNA expression per entry
1. 798762 (kT*kA*kG*dG*dA*d[5mC]*dG*dA*dG*dG*dG*d[5mC]*dG*kG*k[5mC]*kT; antisense) [compound 798762]
2. 799168 (antisense kG*k[5mC]*kT*dA*dA*dG*dA*dA*d[5mC]*dA*dG*dT*dG*kT*k[5mC]*kG) [compound 799168]
3. 799497 (antisense kA*kA*kG*dA*dA*d[5mC]*dT*d[5mC]*dT*d[5mC]*d[5mC]*dT*dA*kA*kG*k[5mC]) [compound 799497]
4. 798963 (antisense kT*kT*k[5mC]*dT*dT*d[5mC]*d[5mC]*dA*dA*dA*dA*dA*dA*kA*k[5mC]*k[5mC]) [compound 798963]
5. 772717 (kA*k[5mC]*kT*d[5mC]*d[5mC]*dT*dT*dT*dA*dG*dA*dA*dA*kA*kA*k[5mC]; antisense) [compound 772717]

1: 56; 2: 75; 3: 0; 4: 13; 5: 28

Here are 4 substances. What values of % inhibition of SMAD7 mRNA expression were reported for them?
1. 798777 (kG*k[5mC]*kA*dA*d[5mC]*dA*d[5mC]*dA*dG*d[5mC]*d[5mC]*dT*d[5mC]*kT*kT*kG; antisense) [compound 798777]
2. 798763 (kG*kA*kG*dT*dA*dG*dG*dA*d[5mC]*dG*dA*dG*dG*kG*k[5mC]*kG; antisense) [compound 798763]
3. 799402 (antisense kG*kG*kT*d[5mC]*dA*d[5mC]*dT*dG*dT*dT*d[5mC]*dT*d[5mC]*kT*k[5mC]*kT) [compound 799402]
4. 798711 (antisense k[5mC]*kG*kG*d[5mC]*d[5mC]*d[5mC]*d[5mC]*dA*dT*dG*d[5mC]*dG*d[5mC]*kT*k[5mC]*kG) [compound 798711]

[20, 53, 66, 59]
